Test system: CRL-8155 (lymphocyte) cells
Experiment: Cytotoxicity in CRL-8155 cells, Alamar Blue
Assay type: cell-based, human
Conditions: read-out: Cytotoxicity CC50 CRL-8155, 48h
Here, each record is paired with measured CC50 data.

Use these answered entries as a reference point.
- molecule: "CCOc1ccc2cc(-c3nn(CC4CCN(C)CC4)c4ncnc(N)c34)ccc2n1 [BKI-1369]"
  experimental target: "CRL-8155 (lymphocyte) cells"
  CC50: "> 80 µM"
- molecule: "CCOc1ccc2cc(-c3nn(CC4CCN(C)CC4)c4ncnc(N)c34)ccc2c1 [BKI-1294]"
  experimental target: "CRL-8155 (lymphocyte) cells"
  CC50: "> 40 µM"

Would you kindly look at the next entry?
# CCOc1ccc2cc(-c3nn(C(C)(C)C)c(N)c3C(N)=O)cnc2c1 [BKI-1517] with CRL-8155 (lymphocyte) cells: CC50 is > 40 µM

Numbers sourced from paper PMC8582287.
